Can you tell me self-cleavage for the items I'm about to list?
B1: Hairpin Ribozyme (parent)
chain: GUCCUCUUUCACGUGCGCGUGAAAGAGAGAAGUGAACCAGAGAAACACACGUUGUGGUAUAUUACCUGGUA

Variants of: B1
TEST_DETAILS: self-cleavage, relative activity (ratio to wild type); higher = more cleavage; co-transcriptional
Numbers only.

Answered examples (5):
{"PRIMARY_SEQUENCE": "GUCCUCUUUCACGUGCGCGUGAAAGAGAGAAGUGAACAAGAGAAACACACGUGGUGGUAUAUUACCUGGUA [C38A U53G]", "MEASURED_PROPERTY": "self-cleavage", "NUMERIC_VALUE": 0.0628}
{"PRIMARY_SEQUENCE": "GUCCUCUUUCACGUGCGCGUGAAAGAGAUAAUUGAACCAGAGAAACACACGUUGUGGUAUAUUACCUGGUA [G29U G32U]", "MEASURED_PROPERTY": "self-cleavage", "NUMERIC_VALUE": 0.164}
{"PRIMARY_SEQUENCE": "GUCCUCUUUCACGUGCGCGUGAACGAGAGAAGGGAACCAGAGAAACACACGUUGUGGUAUAUUACCUGGUA [A24C U33G]", "MEASURED_PROPERTY": "self-cleavage", "NUMERIC_VALUE": 0.152}
{"PRIMARY_SEQUENCE": "GUCCUCUUUCACGUGCGCGUGAAAGAGAGAAGUGAACCAGAGAAACACACGUUGUGGUAUAUCACCUGCUA [U63C G69C]", "MEASURED_PROPERTY": "self-cleavage", "NUMERIC_VALUE": 0.28}
{"PRIMARY_SEQUENCE": "GUCCUCUUUCACGUGCGCGUGAAAGAGAUAAGUGAGCCAGAGAAACACACGUUGUGGUAUAUUACCUGGUA [G29U A36G]", "MEASURED_PROPERTY": "self-cleavage", "NUMERIC_VALUE": 0.275}

Provide reported self-cleavage for each item, in the same order as listed.
1. GUCCUCUUUCACGUGCGCGUGAAAUAGCGAAGUGAACCAGAGAAACACACGUUGUGGUAUAUUACCUGGUA [G25U A28C]
2. GUCCUCUUUCACGUGCGCGUGAAAGAGAGAAGUCAACCAGAGAAACACACGUUGUGGUAUAUUACCUGCUA [G34C G69C]
3. GUCCUCUUUCCCGUGCGCGUGAAAGAGAGAAUUGAACCAGAGAAACACACGUUGUGGUAUAUUACCUGGUA [A11C G32U]
4. GUCCUCUUUCACGUGCGCGUGAAAGAGAGAAGUGAACCAGAGAAAUACACGUAGUGGUAUAUUACCUGGUA [C46U U53A]
5. GUCCUCUUUCACGUGCGCGUGAAAGAGAGAAGUGAACCAGAGAAACUCACGUUGUGGUACAUUACCUGGUA [A47U U60C]

**A:**
1. 0.233
2. 0.564
3. 0.063
4. 0.215
5. 0.0859

Provide reported self-cleavage for each item, in the same order as listed.
1. GUCCUGUUUCACGUGCGCGUGAAAGAGAGAAGUGAACCAGAGAAACACACGUUGUGGUAUACUACCUGGUA [C6G U62C]
2. GUCCUCUUUCACGUGCGCGUGAAAGAGAGAAGUGAACCAGAGAUACACACGUUGUGGUAUAUUACAUGGUA [A44U C66A]
3. GUCCUCUUUCACGUGCCCGUGAAAGAGAGAAGUGAACCAGAGAAACACACGUUGUGCUAUAUUACCUGGUA [G17C G57C]
4. GUCCUCUUUCACGUGCGUGUGAAAGUGAGAAGUGAACCAGAGAAACACACGUUGUGGUAUAUUACCUGGUA [C18U A26U]
5. GUCCUCUUUCACGUGCGCGUGUAAGAGAGAAGUGAACCAGAGUAACACACGUUGUGGUAUAUUACCUGGUA [A22U A43U]

**A:**
1: 0.116; 2: 0.151; 3: 0.206; 4: 0.59; 5: 0.136

Provide reported self-cleavage for each item, in the same order as listed.
1. GUCCUCUUUCACGUGCGCGUGAAUGAGAGCAGUGAACCAGAGAAACACACGUUGUGGUAUAUUACCUGGUA [A24U A30C]
2. GUCCUCUUUCACGUGCGCGUGAAAGAGAGAAGUGAACUAGAGAAACACACGCUGUGGUAUAUUACCUGGUA [C38U U52C]
3. GUGCUCUUUUACGUGCGCGUGAAAGAGAGAAGUGAACCAGAGAAACACACGUUGUGGUAUAUUACCUGGUA [C3G C10U]
4. GUCCUCUUACACGUGCGCGUGAAAGAGAGAAGUGAACCAUAGAAACACACGUUGUGGUAUAUUACCUGGUA [U9A G40U]
5. GUCGUCUUUCACGUGCGCGUGAAAGCGAGAAGUGAACCAGAGAAACACACGUUGUGGUAUAUUACCUGGUA [C4G A26C]
6. GUCCUCUUUCACGUGCGCGUGAAAGAGGGAAGUGAACCAAAGAAACACACGUUGUGGUAUAUUACCUGGUA [A28G G40A]
7. GUCCUCUUUCACGUGCGCGUGAAAGAGAGAAGUGAACGAGAGAAACCCACGUUGUGGUAUAUUACCUGGUA [C38G A47C]

**A:**
1: 0.332; 2: 0.598; 3: 0.213; 4: 0.119; 5: 0.259; 6: 0.426; 7: 0.128

Data origin, for the record: the RNAGym collection of RNA variant scans (doi:10.7554/elife.80360)
